Source listed as patent US20090221530A1.

Biological target: F plasmid TraI N300 (Escherichia coli, UniProt P14565)
Construct: An amino-terminal 300 residue F plasmid TraI construct; made in house; host or cells: E. coli BL21 (DE3)/pLysS or HMS174 (DE3)/pLysS, vector pTYB2
Sequence (P14565 1-306): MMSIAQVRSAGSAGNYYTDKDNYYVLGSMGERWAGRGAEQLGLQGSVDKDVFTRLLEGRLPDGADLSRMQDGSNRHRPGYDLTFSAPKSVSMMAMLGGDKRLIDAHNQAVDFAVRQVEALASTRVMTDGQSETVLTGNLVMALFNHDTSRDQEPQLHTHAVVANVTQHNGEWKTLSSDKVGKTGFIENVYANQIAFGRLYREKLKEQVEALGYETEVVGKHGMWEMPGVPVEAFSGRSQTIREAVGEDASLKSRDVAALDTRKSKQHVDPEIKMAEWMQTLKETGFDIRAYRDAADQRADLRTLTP
Test: Fluorescence kinetic assay of oriT DNA cleavage and crossover by TraI N300
Assay type: biochemical, E. coli
Conditions: DNA crossover; read-out: Kic
pKi: −log10 of the molar value.
experimental_endpoint: pKi

Given the compound O=P(O)(O)NP(=O)(O)O [pNp, imidodiphosphate] , what is its reported pKi?
8.80 to 9.05

====

Biological target: F plasmid TraI N300 (Escherichia coli)
Construct: An amino-terminal 300 residue F plasmid TraI construct; made in house; host or cells: E. coli BL21 (DE3)/pLysS or HMS174 (DE3)/pLysS, vector pTYB2
Experiment: Fluorescence kinetic assay of oriT DNA cleavage and crossover by TraI N300
Type: biochemical, E. coli
Details: Cleavage; C-B/E Direct Linear Plot; read-out: Kiu
experimental_endpoint: pKi
Give bare numbers, as −log10 of the molar value.

pKi of O=P(O)(O)NP(=O)(O)O [pNp, imidodiphosphate] on F plasmid TraI N300 (Escherichia coli)?
8.58

====

Test system: F− recipient cells
Assay: microbe, parasite or virus in culture
Format: cell-based, E. coli
Conditions: Escherichia coli, 100 min, vs. F− recipient cells; first EC50 block; read-out: 100 minute EC50
experimental_endpoint: EC50 (µM)
Answers are plain numbers, in µM.

>>> df
                                   compound   val
0  O=P(O)(O)NP(=O)(O)O [pNp, imidodiphosphate]   593
1  O=P(O)(O)C(Cl)(Cl)P(=O)(O)O [Clodronate, reference compound]  1000

Switching to the query record.
Given the compound CC(O)(P(=O)(O)O)P(=O)(O)O [Etidronate, reference compound] , what is its reported EC50?
327

====

System: F+ donor cells
Assay: microbe, parasite or virus in culture
Format: cell-based, E. coli
Settings: listed as vs. F+ donor cells relative to transconjugants; first EC50 block
Label y for high-side Selectivities by EC50, Transconj. (at or above 0.1) and n for low-side Selectivities by EC50, Transconj. (below it).

Reference set, count: 4
>>> df
                                   molecule    assay_target  class
0  O=P(O)(O)C(Cl)(Cl)P(=O)(O)O [Clodronate, reference compound]  F+ donor cells      y
1  O=P(O)(O)NP(=O)(O)O [pNp, imidodiphosphate]  F+ donor cells      n
2  COP(=O)(OC)c1ccccc1P(=O)(OC)OC [1,2-Bis(dimethoxyphosphoryl)benzene, 1,2-bis(dimethoxyphosphoryl)benzene]  F+ donor cells      n
3  CC(O)(P(=O)(O)O)P(=O)(O)O [Etidronate, reference compound]  F+ donor cells      y

Is reported Selectivities by EC50, Transconj. greater than or equal to 0.1 here: O=P(O)(O)CNCP(=O)(O)O [Iminobis(methylphosphonate)]
n

====

Target: F plasmid TraI N300 (Escherichia coli, UniProt P14565)
Construct: An amino-terminal 300 residue F plasmid TraI construct; made in house; host or cells: E. coli BL21 (DE3)/pLysS or HMS174 (DE3)/pLysS, vector pTYB2
Assay: Fluorescence kinetic assay of oriT DNA cleavage and crossover by TraI N300
Type: biochemical, E. coli
Conditions: Cleavage; M/M Nonlinear Regression; competitive inhibition constant, apparent; read-out: Kic
Protocol: Reaction Buffer: 6.42 mM MgCl2, 20.5% glycerol, 153.9 mM NaCl, and 51.3 mM Tris-HCl pH 7.5. Streptavidin Wash Buffer (Tris buffered saline, TBS/Tween): and 150 mM NaCl, 25 mM Tris-HCl pH 7.5, and 0.05% Tween-20. Stopping Buffer: 1.2% sodium-dodecyl sulfate (SDS), and 300 mM EDTA pH 10. TE Buffer: 1 mM EDTA, and 10 mM Tris-HCl pH 7.4. Fluorescence Buffer: 80% glycerol, 200 mM Tris-HCl pH 8.0. […]
experimental_endpoint: pKi
Give bare numbers, as −log10 of the molar value.

Given the molecule O=P(O)(O)NP(=O)(O)O [pNp, imidodiphosphate] , what is its reported pKi?
8.64

====

Tested on: F− recipient cells
Test: microbe, parasite or virus in culture
Assay type: cell-based, E. coli
Details: listed as vs. F− recipient cells relative to donors; first EC50 block
I'd appreciate it if you could supply Selectivities by EC50, Donors values for the items below.
Give bare numbers.

>>> print(df.to_string())
                                   compound      val
0  CC(O)(P(=O)(O)O)P(=O)(O)O [Etidronate, reference compound]  4.3E+04
1            COP(=O)(OC)c1ccccc1P(=O)(OC)OC  3.3E+05
2  O=P(O)(O)NP(=O)(O)O [pNp, imidodiphosphate]  1.7E+03
3  O=P(O)(O)C(Cl)(Cl)P(=O)(O)O [Clodronate, reference compound]  3.6E+02

Switching to the query record.
Given the compound O=P(O)(O)CNCP(=O)(O)O [Iminobis(methylphosphonate)] , what is its reported Selectivities by EC50, Donors?
4.8E+05
